Values from a melting point compilation (Tetko et al.; mined from patent text by program, amines drawn as free bases though some values may be those of a salt)

Property label: melting point

Some solved cases for reference:
- Molecule: "Cc1nc2c3c(ccc2[nH]1)[C@@H](O)[C@H](O)[C@@H](c1ccccc1)O3"
  melting point: "163 °C"
- Molecule: "CCC(COC(=O)c1ccc[nH]1)C1CN(C)C2Cc3cn(C)c4cccc(c34)C2(OC)C1 (centres undefined)"
  melting point: "96 to 98 °C"
- Molecule: "COCc1noc(-c2ncn3c2CN(C)C(=O)c2c(Cl)cccc2-3)n1"
  melting point: "213 to 215 °C"
- Molecule: "CCCCCCCCOC(=O)c1[nH]c2cccc3c2c1CCNC3=O"
  melting point: "170 to 171 °C"
- Molecule: "Cc1cc(C2=C(C=CC3CC(O)CC(=O)O3)C(C)(C)CC(O)C2)ccc1F (centres undefined)"
  melting point: "77 to 79 °C"

Value of measured melting point for the entry CCCNc1ccc(-c2nc(=O)c3ccccc3s2)cn1 : 210 to 211 °C

Data point: Oc1ccccc1C=NCCN=Cc1ccccc1O ; melting point = 126 °C
